System: SU-DHL-5 (B-Cell Non-Hodgkin's Lymphoma)
Assay: Bliss excess, mean over the matrix (fraction); higher = more synergy
Attribute: Bliss excess

// known answers, use as guide
COMPOUND | Bliss excess
CN(C)CCCOc1ccc(-c2ccc3ncc4c(c3c2)n(C2CCOCC2)c(=O)n4C)cn1 [AZD0156] + CCN(CCO)CCCOc1ccc2c(Nc3cc(CC(=O)Nc4cccc(F)c4)[nH]n3)ncnc2c1 [AZD2811] (first compound max 1 µM, 7x7, partner max 1 µM) | -0.0542
NC1(C(=O)N[C@@H](CCO)c2ccc(Cl)cc2)CCN(c2ncnc3[nH]ccc23)CC1 [Capivasertib] + C[C@@H]1COCCN1C2=NC(=NC(=C2)C3(CC3)[S@](=N)(=O)C)C4=C5C=CNC5=NC=C4 [AZD6738] (first compound max 10 µM, 7x7, partner max 10 µM) | 0.0087

If you can, please state the reported Bliss excess value of CC1(C)CCC(CN2CCN(c3ccc(C(=O)NS(=O)(=O)c4ccc(NCC5CCOCC5)c([N+](=O)[O-])c4)c(Oc4cnc5[nH]ccc5c4)c3)CC2)=C(c2ccc(Cl)cc2)C1 [Venetoclax] + COc1cc(Nc2ncc3c(n2)-c2ccc(Cl)cc2C(c2c(F)cccc2OC)=NC3)ccc1C(=O)O [Alisertib] (first compound max 1 µM, 7x7, partner max 10 µM) . -0.003

If you can, please state the reported Bliss excess value of CN(CCO)CC[C@H](CSc1ccccc1)Nc1ccc(S(=O)(=O)NC(=O)c2ccc(N3CCC([C@@H](O)c4ccccc4-c4ccc(Cl)cc4)CC3)cc2)cc1S(=O)(=O)C(F)(F)F [AZD4320] + C=CCn1c(=O)c2cnc(Nc3ccc(N4CCN(C)CC4)cc3)nc2n1-c1cccc(C(C)(C)O)n1 [AZD1775] (first compound max 1 µM, partner max 1 µM) . 0.0007

====

System: SUP-B15 (B-Lymphoblastic Leukemia)
Experiment: combination Emax (second highest fraction inhibited in the dose matrix, 72 h); higher = more inhibition; extreme values may be limits of the assay
Attribute: combination Emax
// return just the number, without any unit appended

// known answers, use as guide
MOLECULE | MEASURED RESULT
Cc1nc(Nc2ncc(C(=O)Nc3c(C)cccc3Cl)s2)cc(N2CCN(CCO)CC2)n1 [Dasatinib] + CC(=O)Nc1cccc(-n2c(=O)n(C3CC3)c(=O)c3c(Nc4ccc(I)cc4F)n(C)c(=O)c(C)c32)c1 [Trametinib] (first compound max 2 µM, 7x7, partner max 1 µM) | 0.952
COc1nnc2ccc(N3CCC(c4ccc(OCCN5CCN(C)C(=O)[C@H]5C)cc4)CC3)nn12 [AZD5153] + C=CCn1c(=O)c2cnc(Nc3ccc(N4CCN(C)CC4)cc3)nc2n1-c1cccc(C(C)(C)O)n1 [AZD1775] (first compound max 1 µM, partner max 1 µM) | 0.962
CCN(CCO)CCCOc1ccc2c(Nc3cc(CC(=O)Nc4cccc(F)c4)[nH]n3)ncnc2c1 [AZD2811] + C=CCn1c(=O)c2cnc(Nc3ccc(N4CCN(C)CC4)cc3)nc2n1-c1cccc(C(C)(C)O)n1 [AZD1775] (first compound max 1 µM, partner max 1 µM) | 0.966
Cc1cc2ncnn2cc1Nc1ncc2c(n1)n(C1CCOCC1)c(=O)n2C [AZD7648] + C=CCn1c(=O)c2cnc(Nc3ccc(N4CCN(C)CC4)cc3)nc2n1-c1cccc(C(C)(C)O)n1 [AZD1775] (first compound max 10 µM, partner max 1 µM) | 0.553

Could you share what combination Emax was measured for Cc1cc2ncnn2cc1Nc1ncc2c(n1)n(C1CCOCC1)c(=O)n2C [AZD7648] + O=C(c1cc(Cc2n[nH]c(=O)c3ccccc23)ccc1F)N1CCN(C(=O)C2CC2)CC1 [Olaparib] (first compound max 10 µM, 7x7, partner max 10 µM) , tested on SUP-B15 (B-Lymphoblastic Leukemia)? 0.917

Could you share what combination Emax was measured for Cn1cnc2c(F)c(Nc3ccc(Br)cc3Cl)c(C(=O)NOCCO)cc21 [Selumetinib] + C[C@@H]1COCCN1C2=NC(=NC(=C2)C3(CC3)[S@](=N)(=O)C)C4=C5C=CNC5=NC=C4 [AZD6738] (first compound max 10 µM, 7x7, partner max 10 µM) , tested on SUP-B15 (B-Lymphoblastic Leukemia)? 0.986

Could you share what combination Emax was measured for COc1cccc(OCCCN)c1-c1cc(Nc2cnc(C#N)cn2)n[nH]1 [Prexasertib] + O=C(c1cc(Cc2n[nH]c(=O)c3ccccc23)ccc1F)N1CCN(C(=O)C2CC2)CC1 [Olaparib] (first compound max 1 µM, 7x7, partner max 10 µM) , tested on SUP-B15 (B-Lymphoblastic Leukemia)? 0.98

Could you share what combination Emax was measured for CC1(C)CCC(CN2CCN(c3ccc(C(=O)NS(=O)(=O)c4ccc(NCC5CCOCC5)c([N+](=O)[O-])c4)c(Oc4cnc5[nH]ccc5c4)c3)CC2)=C(c2ccc(Cl)cc2)C1 [Venetoclax] + C[C@@H]1COCCN1C2=NC(=NC(=C2)C3(CC3)[S@](=N)(=O)C)C4=C5C=CNC5=NC=C4 [AZD6738] (first compound max 1 µM, 7x7, partner max 10 µM) , tested on SUP-B15 (B-Lymphoblastic Leukemia)? 1

Could you share what combination Emax was measured for C[C@@H](c1ccc2nccn2c1)n1nnc2ncc(-c3cnn(C)c3)nc21 [Savolitinib] + CC1(C)CCC(CN2CCN(c3ccc(C(=O)NS(=O)(=O)c4ccc(NCC5CCOCC5)c([N+](=O)[O-])c4)c(Oc4cnc5[nH]ccc5c4)c3)CC2)=C(c2ccc(Cl)cc2)C1 [Venetoclax] (first compound max 1 µM, 7x7, partner max 1 µM) , tested on SUP-B15 (B-Lymphoblastic Leukemia)? 1

====

Attribute: Bliss excess
System: T-T (Esophageal Squamous Cell Carcinoma)
Assay: Bliss excess, mean over the matrix (fraction); higher = more synergy
// return just the number, without any unit appended

COMPOUND | Bliss excess
N#Cc1cnc(Nc2cc(NC[C@H]3CNCCO3)c(C(F)(F)F)cn2)cn1 [SRA737] + O=c1[nH]cc(F)c(=O)[nH]1 [5-Fluorouracil] (first compound max 10 µM, 7x7, partner max 20 µM) | 0.0483
CN(CCO)CC[C@H](CSc1ccccc1)Nc1ccc(S(=O)(=O)NC(=O)c2ccc(N3CCC([C@@H](O)c4ccccc4-c4ccc(Cl)cc4)CC3)cc2)cc1S(=O)(=O)C(F)(F)F [AZD4320] + C[C@@H](Nc1cc(F)cc(F)c1)c1cc(C(=O)N(C)C)cc2c(=O)cc(N3CCOCC3)oc12 [AZD8186] (first compound max 1 µM, 7x7, partner max 3 µM) | 0.054

If you can, please state the reported Bliss excess value of CC1(C)CCC(CN2CCN(c3ccc(C(=O)NS(=O)(=O)c4ccc(NCC5CCOCC5)c([N+](=O)[O-])c4)c(Oc4cnc5[nH]ccc5c4)c3)CC2)=C(c2ccc(Cl)cc2)C1 [Venetoclax] + CS(=O)(=O)CCNCc1ccc(-c2ccc3ncnc(Nc4ccc(OCc5cccc(F)c5)c(Cl)c4)c3c2)o1 [Lapatinib] (first compound max 1 µM, 7x7, partner max 10 µM) . -0.0066

====

Tested on: HCC1187 (Breast Carcinoma)
Test: Bliss excess, mean over the matrix (fraction); higher = more synergy
Attribute: Bliss excess

// known answers, use as guide
COMPOUND | Bliss excess
CC1(C)CCC(CN2CCN(c3ccc(C(=O)NS(=O)(=O)c4ccc(NCC5CCOCC5)c([N+](=O)[O-])c4)c(Oc4cnc5[nH]ccc5c4)c3)CC2)=C(c2ccc(Cl)cc2)C1 [Venetoclax] + C=CCn1c(=O)c2cnc(Nc3ccc(N4CCN(C)CC4)cc3)nc2n1-c1cccc(C(C)(C)O)n1 [AZD1775] (first compound max 1 µM, partner max 1 µM) | -0.0522
CCN(CCO)CCCOc1ccc2c(Nc3cc(CC(=O)Nc4cccc(F)c4)[nH]n3)ncnc2c1 [AZD2811] + C[C@@H]1COCCN1C2=NC(=NC(=C2)C3(CC3)[S@](=N)(=O)C)C4=C5C=CNC5=NC=C4 [AZD6738] (first compound max 1 µM, 7x7, partner max 10 µM) | -0.0841
COc1cccc(OCCCN)c1-c1cc(Nc2cnc(C#N)cn2)n[nH]1 [Prexasertib] + CN(C)CCCOc1ccc(-c2ccc3ncc4c(c3c2)n(C2CCOCC2)c(=O)n4C)cn1 [AZD0156] (first compound max 1 µM, 7x7, partner max 1 µM) | -0.0016

If you can, please state the reported Bliss excess value of Cc1cc2ncnn2cc1Nc1ncc2c(n1)n(C1CCOCC1)c(=O)n2C [AZD7648] + O=C(c1cc(Cc2n[nH]c(=O)c3ccccc23)ccc1F)N1CCN(C(=O)C2CC2)CC1 [Olaparib] (first compound max 10 µM, 7x7, partner max 10 µM) . -0.0092

If you can, please state the reported Bliss excess value of CC1(C)CCC(CN2CCN(c3ccc(C(=O)NS(=O)(=O)c4ccc(NCC5CCOCC5)c([N+](=O)[O-])c4)c(Oc4cnc5[nH]ccc5c4)c3)CC2)=C(c2ccc(Cl)cc2)C1 [Venetoclax] + CN(C)CCCOc1ccc(-c2ccc3ncc4c(c3c2)n(C2CCOCC2)c(=O)n4C)cn1 [AZD0156] (first compound max 1 µM, 7x7, partner max 1 µM) . -0.0071

If you can, please state the reported Bliss excess value of Cn1cnc2c(F)c(Nc3ccc(Br)cc3Cl)c(C(=O)NOCCO)cc21 [Selumetinib] + CCN(CCO)CCCOc1ccc2c(Nc3cc(CC(=O)Nc4cccc(F)c4)[nH]n3)ncnc2c1 [AZD2811] (first compound max 10 µM, 7x7, partner max 1 µM) . -0.0374

If you can, please state the reported Bliss excess value of C[C@@H]1COCCN1c1cc(C2([S@](C)(=N)=O)CC2)nc(-c2ccnc3[nH]ccc23)n1 [AZD6738] + O=C(c1cc(Cc2n[nH]c(=O)c3ccccc23)ccc1F)N1CCN(C(=O)C2CC2)CC1 [Olaparib] (first compound max 10 µM, 7x7, partner max 10 µM) . 0.0586

If you can, please state the reported Bliss excess value of CN(CCO)CC[C@H](CSc1ccccc1)Nc1ccc(S(=O)(=O)NC(=O)c2ccc(N3CCC([C@@H](O)c4ccccc4-c4ccc(Cl)cc4)CC3)cc2)cc1S(=O)(=O)C(F)(F)F [AZD4320] + CCN(CCO)CCCOc1ccc2c(Nc3cc(CC(=O)Nc4cccc(F)c4)[nH]n3)ncnc2c1 [AZD2811] (first compound max 1 µM, 7x7, partner max 1 µM) . -0.0032

If you can, please state the reported Bliss excess value of CC(=O)c1c(C)c2cnc(Nc3ccc(N4CCNCC4)cn3)nc2n(C2CCCC2)c1=O [Palbociclib] + CN(CC[C@H](CSC1=CC=CC=C1)NC2=C(C=C(C=C2)S(=O)(=O)NC(=O)C3=CC=C(C=C3)N4CCC(CC4)[C@H](C5=CC=CC=C5C6=CC=C(C=C6)Cl)O)S(=O)(=O)C(F)(F)F)CCO [AZD4320] (first compound max 10 µM, 7x7, partner max 1 µM) . -0.0429
